FYI, the data here is from ChEMBL document CHEMBL5608113.

tested on: Colon cancer organoid; assay: Targeting of F14 CAF-induced therapy resistance in O14 CRC organoid-stroma co-culture. Cell viability is reported without Gefitinib.; assay type: functional, Homo sapiens; settings: Homo sapiens, Concentration 10 uM; read-out: Cell Viability
Property Measured: viability at 10 µM (%)
State the answer as a number, implicitly in %.

**Query** Requested read-out: viability at 10 µM. Entry: CN1CCN(C(=O)C(C)(C)c2ccc(C(=O)Nc3cn4cc(-c5cc(C(C)(C)C)cc(C(C)(C)C)c5)ccc4n3)cc2)CC1 [T3-CLK-N]
**Result** 112

**Query** Requested read-out: viability at 10 µM. Entry: O=C(O)c1ccc(-c2c[nH]c3ncc(-c4ccccc4)cc23)cc1C1CCCC1 [GSK-650394]
**Result** 104

**Query** Requested read-out: viability at 10 µM. Entry: COc1ccc2c(O[C@@H]3C[C@H]4C(=O)N[C@]5(C(=O)O)CC5/C=C\CCCCC[C@H](NC(=O)OC5CCCC5)C(=O)N4C3)cc(-c3csc(NC(=O)C(C)C)n3)nc2c1C (some centres not stated) [BI 1230]
**Result** 152

**Query** Requested read-out: viability at 10 µM. Entry: C[C@H]1CCCN1Cc1nc2cc(NC(=O)c3ccc4cnccc4c3)ccc2[nH]1
**Result** 53.7

**Query** Requested read-out: viability at 10 µM. Entry: Cc1cnc(-c2cc(Cl)ccc2F)cc1-n1c(=O)n(CC(N)=O)c2cnccc21 [TP-008]
**Result** 114

**Query** Requested read-out: viability at 10 µM. Entry: Cc1sc2c(c1C)C(c1ccc(Cl)cc1)=N[C@H](CC(=O)OC(C)(C)C)c1nnc(C)n1-2
**Result** 103

**Query** Requested read-out: viability at 10 µM. Entry: CCCc1cc(C)[nH]c(=O)c1CNC(=O)c1cc(-c2ccc(N3CCN(C(C)C)CC3)nc2)cc2c1cnn2C(C)C
**Result** 95.6

---

Provide the reported viability at 10 µM of each item.
test system: Colon cancer organoid; assay: Targeting of F14 CAF-induced therapy resistance in O23 CRC organoid-stroma co-culture. Cell viability is reported with SN-38.; type: functional, Homo sapiens; conditions: Homo sapiens, Concentration 10 uM; read-out: Cell Viability
State the answer as a number, implicitly in %.

**Query** Requested read-out: viability at 10 µM. Entry: O=C(NC[C@@H]1[C@H]2CN(C(=O)OCc3cc(C(F)(F)F)cc(C(F)(F)F)c3)C[C@@H]12)c1ccc2[nH]nnc2c1
**Result** 105

**Query** Requested read-out: viability at 10 µM. Entry: O=C(Nc1cccnn1)N1CCC(=Cc2cccc(Oc3ccc(C(F)(F)F)cn3)c2)CC1
**Result** 105

**Query** Requested read-out: viability at 10 µM. Entry: CC(=O)Nc1c(F)cc(C(=O)N[C@H]2CC[C@H](O)CC2)cc1O[C@@H](C)c1ccccc1
**Result** 48.8

**Query** Requested read-out: viability at 10 µM. Entry: CCOC(=O)c1c(/C(C#N)=C\N)c2ccc(Cl)c(Cl)c2n1C
**Result** 68.1

**Query** Requested read-out: viability at 10 µM. Entry: Cn1c(=O)[nH]c2cc(N3C(=O)c4cccc5c(CCCO)ccc(c45)C3=O)ccc21
**Result** 69.9

**Query** Requested read-out: viability at 10 µM. Entry: CN1CCN(c2ccnc(NCCc3ccccc3)n2)CC1 [TP-040n]
**Result** 89.4

**Query** Requested read-out: viability at 10 µM. Entry: NC1(c2ccc(-c3nc4ccn5c(=O)[nH]nc5c4cc3-c3ccccc3)cc2)CCC1
**Result** 19.5

**Query** Requested read-out: viability at 10 µM. Entry: CO[C@H]1CNC[C@@H](OCC2CCC(F)(F)CC2)[C@@H]1Nc1ncc(-c2cncc(C)c2)c2cc(C)c(=O)[nH]c12
**Result** 81.8

**Query** Requested read-out: viability at 10 µM. Entry: O=C(NNS(=O)(=O)c1ccccc1)c1cc(-c2ccnnc2)ccc1F
**Result** 54.2

**Query** Requested read-out: viability at 10 µM. Entry: COc1ccc(Cn2ccc3ccc(C(=O)NO)cc32)cc1
**Result** 94.6

**Query** Requested read-out: viability at 10 µM. Entry: O=C(O)CNC(=O)c1c(O)c2ccccc2n(Cc2ccccc2)c1=O
**Result** 95.1

**Query** Requested read-out: viability at 10 µM. Entry: O=C(NNS(=O)(=O)c1ccccc1F)c1cc(F)cc(-c2ccccn2)c1
**Result** 57.2

**Query** Requested read-out: viability at 10 µM. Entry: CN(C)[C@H]1CN(C2CCc3cccc(F)c32)C[C@@H]1c1ccc(N2CCN(S(C)(=O)=O)CC2)cc1 (stereo partly drawn)
**Result** 112

**Query** Requested read-out: viability at 10 µM. Entry: COc1cc(-c2cn([C@H]3CCc4c(F)cccc4N(CC(F)(F)F)C3=O)nn2)ccc1-n1cnc(C)c1
**Result** 69.6

**Query** Requested read-out: viability at 10 µM. Entry: Cc1sc2c(c1C)C(c1ccc(Cl)cc1)=N[C@@H](CC(=O)OC(C)(C)C)c1nnc(C)n1-2
**Result** 53.4

**Query** Requested read-out: viability at 10 µM. Entry: COc1cc(OC)cc(-c2noc(N3CCN(C)C4(CCN(c5ccnc(C)c5)CC4)C3)n2)c1
**Result** 101

**Query** Requested read-out: viability at 10 µM. Entry: CN(C)C(=O)N1CC[C@H](NC2=Nc3cc(F)ccc3N(CC(F)F)c3ccc(Cl)cc32)C1
**Result** 75.2

**Query** Requested read-out: viability at 10 µM. Entry: COCc1nc2cnc3cc(-c4c(C)noc4C)c(OC[C@H]4CCNC4)cc3c2n1[C@H](C)c1ccccc1
**Result** 48.8
